Reported Activity values are given for each entry in this list.
# Test system: Serum
# experiment: Stability in 50% rat serum assessed as amount of parent drug released from cattle bone meal powder over 24 hrs
# Format: ADME, cell-free
// return numeric value only (unit: %, not printed)

Take a look at these entries with their results.
1) COc1c(N2CCN(CCC(=O)c3ccc(OCCCC(P(=O)(O)O)P(=O)(O)O)cc3)C(C)C2)c(F)cc2c(=O)c(C(=O)O)cn(C3CC3)c12 (stereo unspecified)	4.2
2) COc1c(N2CCN(C(=O)OCOC(=O)CCC(P(=O)(O)O)P(=O)(O)O)C(C)C2)c(F)cc2c(=O)c(C(=O)O)cn(C3CC3)c12 (stereo unspecified)	25.4

Entry COc1c(N2CCN(C(=O)CC(C)(C)c3cc(P(=O)(O)CP(=O)(O)O)ccc3OC(C)=O)C(C)C2)c(F)cc2c(=O)c(C(=O)O)cn(C3CC3)c12 (stereo unspecified) under Serum had Activity of 6.2

Reported Serum Activity for item COc1c(N2CCN(C(=O)CC(C)(C)c3cc(P(=O)(O)CP(=O)(O)O)ccc3OC(=O)C(C)C)C(C)C2)c(F)cc2c(=O)c(C(=O)O)cn(C3CC3)c12 (stereo unspecified) was 6.1

Hey, Serum data for COc1c(N2CCN(C(=O)OC(C)OC(=O)CCCC(=O)NC(P(=O)(O)O)P(=O)(O)O)C(C)C2)c(F)cc2c(=O)c(C(=O)O)cn(C3CC3)c12 (stereo unspecified) : Activity came out at 1.8

`O=C(O)c1cn(C2CC2)c2cc(N3CCN(CC(P(=O)(O)O)P(=O)(O)O)CC3)c(F)cc2c1=O` tested on Serum gave Activity: 0.01

###

# Tested on: Bone
# experiment: Binding affinity to bone assessed as drug level bound to cattle bone meal powder by fluorescence assay
# Type: tissue-based
# Parameters: concentration or dose not given beside the values
# measurement parameters: Bos taurus; Bone element
Lab note: cut-off is 90%. Strictly less in Activity is label 1. Exactly 90% or more is label 0.

Example results:
1. COc1c(N2CCN(C(=O)OCOC(=O)CCC(P(=O)(O)O)P(=O)(O)O)C(C)C2)c(F)cc2c(=O)c(C(=O)O)cn(C3CC3)c12 (stereo unspecified)	label 1
2. COc1c(N2CCN(C(=O)CC(C)(C)c3cc(P(=O)(O)CP(=O)(O)O)ccc3OC(=O)C(C)C)C(C)C2)c(F)cc2c(=O)c(C(=O)O)cn(C3CC3)c12 (stereo unspecified)	label 1
3. COc1c(N2CCN(CCC(=O)c3ccc(OCCCC(P(=O)(O)O)P(=O)(O)O)cc3)C(C)C2)c(F)cc2c(=O)c(C(=O)O)cn(C3CC3)c12 (stereo unspecified)	label 0

Hello, is Activity of the following compound strictly smaller than 90%? COc1c(N2CCN(C(=O)CC(P(=O)(O)O)P(=O)(O)O)C(C)C2)c(F)cc2c(=O)c(C(=O)O)cn(C3CC3)c12 (stereo unspecified)
label 0

Dear reviewer, please state whether `COc1c(N2C[C@@H]3CCCN(C(=O)CC(P(=O)(O)O)P(=O)(O)O)[C@@H]3C2)c(F)cc2c(=O)c(C(=O)O)cn(C3CC3)c12` has Activity strictly beneath 90%.
label 0

Take the compound COc1c(N2C[C@@H]3CCCN(C(=O)OC(C)OC(=O)CCCC(=O)NC(P(=O)(O)O)P(=O)(O)O)[C@@H]3C2)c(F)cc2c(=O)c(C(=O)O)cn(C3CC3)c12 (stereo partly specified) and say whether its Activity is less than 90%.
label 0

###

# experiment: Stability in phosphate buffer saline assessed as amount of parent drug released from cattle bone meal powder over 24 hrs
# Assay type: ADME
Kind request: treat 1% as inclusive, so Activity at 1% or higher is MET, anything lower is NOT MET.

Decide: is the reported value of Activity for COc1c(N2CCN(C(=O)CC(C)(C)c3cc(P(=O)(O)CP(=O)(O)O)ccc3OC(C)=O)C(C)C2)c(F)cc2c(=O)c(C(=O)O)cn(C3CC3)c12 (stereo unspecified) equal to or greater than 1%?
MET

###

// reported Activity per item
# Test system: Serum
# experiment: Stability in 50% rat serum assessed as amount of parent drug released from cattle bone meal powder over 24 hrs
# Format: ADME, cell-free
The answer consists of two parts: a number and, after it, its unit.

1) COc1c(N2C[C@@H]3CCCN(C(=O)CC(P(=O)(O)O)P(=O)(O)O)[C@@H]3C2)c(F)cc2c(=O)c(C(=O)O)cn(C3CC3)c12	0.01%
2) COc1c(N2CCN(Cc3oc(=O)oc3-c3ccc(P(=O)(O)CP(=O)(O)O)cc3)C(C)C2)c(F)cc2c(=O)c(C(=O)O)cn(C3CC3)c12 (stereo unspecified)	30%
3) COc1c(N2C[C@@H]3CCCN(CC(P(=O)(O)O)P(=O)(O)O)[C@@H]3C2)c(F)cc2c(=O)c(C(=O)O)cn(C3CC3)c12	0.01%
4) COc1c(N2CCN(C(=O)OC(C)OC(=O)CCCC(P(=O)(O)O)P(=O)(O)O)C(C)C2)c(F)cc2c(=O)c(C(=O)O)cn(C3CC3)c12 (stereo unspecified)	0.7%
5) COc1c(N2CCN(C(=O)CC(P(=O)(O)O)P(=O)(O)O)C(C)C2)c(F)cc2c(=O)c(C(=O)O)cn(C3CC3)c12 (stereo unspecified)	0.01%

Next item in the queue.
# value of Activity, Serum, item COc1c(N2C[C@@H]3CCCN(C(=O)OC(C)OC(=O)CCCC(=O)NC(P(=O)(O)O)P(=O)(O)O)[C@@H]3C2)c(F)cc2c(=O)c(C(=O)O)cn(C3CC3)c12 (stereo partly specified) = 1.4%

###

# Activity annotations
# System: Bone
# experiment: Binding affinity to bone assessed as drug level bound to cattle bone meal powder by fluorescence assay
# Assay type: tissue-based
# Set-up: concentration or dose not given beside the values
# measurement parameters: Bos taurus; Bone element
Hi! Could you send only the number? It should be in %, unit omitted.

Below: 4 molecules and their reported Activity.
1. COc1c(N2CCN(C(=O)OC(C)OC(=O)CCCC(=O)NC(P(=O)(O)O)P(=O)(O)O)C(C)C2)c(F)cc2c(=O)c(C(=O)O)cn(C3CC3)c12 (stereo not given)	94.3
2. COc1c(N2CCN(C(=O)CC(C)(C)c3cc(P(=O)(O)CP(=O)(O)O)ccc3OC(C)=O)C(C)C2)c(F)cc2c(=O)c(C(=O)O)cn(C3CC3)c12 (stereo not given)	36.6
3. O=C(O)c1cn(C2CC2)c2cc(N3CCN(CC(P(=O)(O)O)P(=O)(O)O)CC3)c(F)cc2c1=O	99.6
4. COc1c(N2C[C@@H]3CCCN[C@@H]3C2)c(F)cc2c(=O)c(C(=O)O)cn(C3CC3)c12	0.01

Form: molecule = `COc1c(N2C[C@@H]3CCCN(CC(P(=O)(O)O)P(=O)(O)O)[C@@H]3C2)c(F)cc2c(=O)c(C(=O)O)cn(C3CC3)c12` ; Activity = 92.2

###

Parameter: Activity. Scope: all listed entries.
# Tested on: Serum
# experiment: Stability in 50% human serum assessed as amount of parent drug released from cattle bone meal powder over 24 hrs
# Assay type: ADME, cell-free
Write the value in % as a bare number.

1. COc1c(N2CCN(C(=O)CC(C)(C)c3cc(P(=O)(O)CP(=O)(O)O)ccc3OC(C)=O)C(C)C2)c(F)cc2c(=O)c(C(=O)O)cn(C3CC3)c12 (stereo unspecified)	3.7
2. COc1c(N2CCN(C(=O)OC(C)OC(=O)CCCC(P(=O)(O)O)P(=O)(O)O)C(C)C2)c(F)cc2c(=O)c(C(=O)O)cn(C3CC3)c12 (stereo unspecified)	0.9
3. O=C(O)c1cn(C2CC2)c2cc(N3CCN(CC(P(=O)(O)O)P(=O)(O)O)CC3)c(F)cc2c1=O	0.01
4. COc1c(N2CCN(C(=O)OC(C)OC(=O)CCCC(=O)NC(P(=O)(O)O)P(=O)(O)O)C(C)C2)c(F)cc2c(=O)c(C(=O)O)cn(C3CC3)c12 (stereo unspecified)	2.4
5. COc1c(N2CCN(Cc3oc(=O)oc3-c3ccc(P(=O)(O)CP(=O)(O)O)cc3)C(C)C2)c(F)cc2c(=O)c(C(=O)O)cn(C3CC3)c12 (stereo unspecified)	22.8

The value of Activity measured for the compound `COc1c(N2C[C@@H]3CCCN(CC(P(=O)(O)O)P(=O)(O)O)[C@@H]3C2)c(F)cc2c(=O)c(C(=O)O)cn(C3CC3)c12` turned out to be 0.01

###

# Tested on: Serum
# experiment: Stability in 50% human serum assessed as amount of parent drug released from cattle bone meal powder over 24 hrs
# Assay type: ADME, cell-free
value type: Activity (%)
Please respond with the number in % and leave the unit unwritten.

Record excerpt, results attached:
1. COc1c(N2CCN(C(=O)CC(P(=O)(O)O)P(=O)(O)O)C(C)C2)c(F)cc2c(=O)c(C(=O)O)cn(C3CC3)c12 (stereo unspecified)	0.01
2. COc1c(N2CCN(C(=O)OCOC(=O)CCC(P(=O)(O)O)P(=O)(O)O)C(C)C2)c(F)cc2c(=O)c(C(=O)O)cn(C3CC3)c12 (stereo unspecified)	21.2
3. COc1c(N2CCN(C(=O)CC(C)(C)c3cc(P(=O)(O)CP(=O)(O)O)ccc3OC(=O)C(C)C)C(C)C2)c(F)cc2c(=O)c(C(=O)O)cn(C3CC3)c12 (stereo unspecified)	3.6
4. COc1c(N2C[C@@H]3CCCN(C(=O)OC(C)OC(=O)CCCC(=O)NC(P(=O)(O)O)P(=O)(O)O)[C@@H]3C2)c(F)cc2c(=O)c(C(=O)O)cn(C3CC3)c12 (stereo partly specified)	1.8
5. COc1c(N2C[C@@H]3CCCN(C(=O)CC(P(=O)(O)O)P(=O)(O)O)[C@@H]3C2)c(F)cc2c(=O)c(C(=O)O)cn(C3CC3)c12	0.01

Let's switch to this compound now.
Documented Activity of COc1c(N2CCN(CCC(=O)c3ccc(OCCCC(P(=O)(O)O)P(=O)(O)O)cc3)C(C)C2)c(F)cc2c(=O)c(C(=O)O)cn(C3CC3)c12 (stereo unspecified) : 4.3
